System: mice
Test: Loss of righting after intravenous administration (mouse)
Assay type: in vivo
Settings: 20 min, intravenous (lateral tail vein), 20 minute observation, acid addition salts, values corrected for the salts
Please provide measured log10 of ED50 for the entries that follow.
Short version: log10 scale, ED50, mg/kg.

Some compounds with recorded log10 of ED50:
• CCOC(=O)c1cc(-c2ccncc2)nn1C(C)c1ccccn1 (stereo not drawn) = 1.08
• CCOC(=O)c1cc(-c2cocn2)n(C(C)c2ccccn2)n1 (stereo not drawn) = 1.13
• CCOC(=O)c1cc(COC(C)=O)n(C(C)c2ccccn2)n1 (stereo not drawn) [CH3 / CO2 Et / CH2 OCOCH3 / N / CH] = 1.45

Would you mind listing log10 of ED50 for each of the following compounds?
1. CCOC(=O)c1cc(C)n(C(C)c2ccccn2)n1 (stereo not drawn) [CH3 / CO2 Et / CH3 / N / CH]
2. CCOC(=O)c1cc(C(C)=O)nn1C(C)c1ccccn1 (stereo not drawn) [CH3 / CH3 CO / CO2 Et / N / CH]
3. CCOC(=O)c1cc(-c2cnco2)nn1C(C)c1ccccn1 (stereo not drawn)
4. CCOC(=O)c1cc(COC)n(C(C)c2ccccn2)n1 (stereo not drawn) [CH3 / CO2 Et / CH2 OCH3 / N / CH]
5. CCOC(=O)c1cc(-c2cccs2)n(C(C)c2ccccn2)n1 (stereo not drawn)

Response given:
1: 0.84; 2: 0.60; 3: 0.45; 4: 1.28; 5: 1.25

Challenge: Which log10 of ED50 reading was recorded for the compound CCOC(=O)c1cc(C)n(Cc2ccccn2)n1 [H / CO2 Et / CH3 / N / CH] ?
Response given: 1.58
